experiment: in vitro; conditions: human, hela cells, % viability
ASSAY_METRIC: viability at 28.5 h, 10 µM (%)

{"MOLECULE": "O=[N+]([O-])c1ccc(CCNCC(O)COc2cccc3c2CCCC3)cc1 (centres unmarked)", "ASSAY_METRIC": "viability at 28.5 h, 10 µM", "MEAS_VALUE": 88.6}
{"MOLECULE": "Cc1cc(C(=O)Nc2ccc([C@@H](O)[C@H]3COCC(=O)N3Cc3ccccc3)cc2)n(C)n1", "ASSAY_METRIC": "viability at 28.5 h, 10 µM", "MEAS_VALUE": 89}
{"MOLECULE": "CN1CCC(CN(C)Cc2ccc3cccc(Cl)c3n2)C1 (centres unmarked)", "ASSAY_METRIC": "viability at 28.5 h, 10 µM", "MEAS_VALUE": 90.2}
{"MOLECULE": "O=C(CC1CCCC1)N1CCCC(c2nnc(-c3cccs3)o2)C1 (centres unmarked)", "ASSAY_METRIC": "viability at 28.5 h, 10 µM", "MEAS_VALUE": 94.3}
{"MOLECULE": "Fc1cccc(F)c1-c1cc(Nc2ccc(N3CCOCC3)cc2)ncn1", "ASSAY_METRIC": "viability at 28.5 h, 10 µM", "MEAS_VALUE": 99.5}
